molecular target: T1, human MCH-1R (human, UniProt Q99705 1-353); experiment: ratio of the two SPA IC50s
T1 construct: Function: 293AEQ17/MCH-1R cells; also called hMCH-1R
T1 sequence (Q99705 whole entry): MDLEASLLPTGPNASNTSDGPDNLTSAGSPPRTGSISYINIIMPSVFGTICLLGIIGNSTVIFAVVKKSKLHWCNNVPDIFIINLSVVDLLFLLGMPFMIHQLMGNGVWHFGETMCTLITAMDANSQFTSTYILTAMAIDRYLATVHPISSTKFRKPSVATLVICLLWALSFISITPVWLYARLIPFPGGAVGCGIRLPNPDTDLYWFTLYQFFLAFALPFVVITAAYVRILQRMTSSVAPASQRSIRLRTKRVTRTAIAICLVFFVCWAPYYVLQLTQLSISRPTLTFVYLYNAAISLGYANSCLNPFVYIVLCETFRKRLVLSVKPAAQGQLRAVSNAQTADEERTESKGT
Positions of bridges follow the written chain, without caps; N, C: chain ends.
Test readout: Selectivity 2/1 (MCH-2R/MCH-1R IC50 ratio)
Write the answer as a number in ratio, unit excluded.

Tell me the measured Selectivity 2/1 (MCH-2R/MCH-1R IC50 ratio) of Ac-RCMLSRVYRPC-NH2 (disulfide 2-11 (inferred), also called Ser^10 peptide) [SEQ. ID. NO. 26 (Ser^10 analog of Ac-hMCH(6-16)-NH2)] , please. 100
